# target-entity: Calcium/calmodulin-dependent protein kinase type 1 (Homo sapiens) (UniProt Q14012)
# Sequence (Q14012 whole entry, looked up): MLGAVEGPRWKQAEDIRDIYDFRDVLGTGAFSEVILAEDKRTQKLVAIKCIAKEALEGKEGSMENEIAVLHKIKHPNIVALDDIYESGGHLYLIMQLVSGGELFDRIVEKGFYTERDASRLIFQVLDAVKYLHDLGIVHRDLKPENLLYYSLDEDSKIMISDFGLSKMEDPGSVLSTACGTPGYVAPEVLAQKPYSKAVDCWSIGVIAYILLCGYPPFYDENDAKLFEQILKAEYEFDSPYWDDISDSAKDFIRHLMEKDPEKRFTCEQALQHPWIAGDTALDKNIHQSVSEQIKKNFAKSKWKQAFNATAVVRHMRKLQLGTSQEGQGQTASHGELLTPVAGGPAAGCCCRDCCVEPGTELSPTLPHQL
# assay-context: at 10 µM
measurement-name: residual activity (%)
Numbers only, in %.

I would be grateful if you could provide residual activity for each of the following entries.
1. Cc1cc2ncc(-c3ccccc3)nc2cc1C
2. COc1ccc(S(=O)(=O)N(CCO)c2ccccc2CN(C)C/C=C/c2ccc(Cl)cc2)cc1
3. O=C1Nc2ccccc2/C1=C1/Nc2ccccc2/C1=N\OCCC(O)CO (stereo unspecified)
4. Oc1c2ccccc2c2c3c(cccc13)N=N2
5. Cn1cnc2cc3c(Nc4cccc(Br)c4)ncnc3cc21
6. Oc1n[nH]c2nnc(-c3c(-c4ccccc4)nn4ccccc34)cc12

Data returned:
[89, 38, 15, 32, 54, 79]

* * *

# target-entity: Serine/threonine-protein kinase Nek6 (Homo sapiens) (UniProt Q9HC98)
# Sequence (Q9HC98 whole entry): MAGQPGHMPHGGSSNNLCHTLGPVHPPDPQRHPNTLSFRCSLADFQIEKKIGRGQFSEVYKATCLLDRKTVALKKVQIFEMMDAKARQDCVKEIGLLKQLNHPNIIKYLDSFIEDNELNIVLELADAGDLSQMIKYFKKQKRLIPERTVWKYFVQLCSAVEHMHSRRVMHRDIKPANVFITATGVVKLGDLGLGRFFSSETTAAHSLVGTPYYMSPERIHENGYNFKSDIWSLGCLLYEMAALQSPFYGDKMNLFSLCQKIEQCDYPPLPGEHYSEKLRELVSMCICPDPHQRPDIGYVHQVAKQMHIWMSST
# assay-context: at 10 µM
# Description: Millipore: Percentage of residual kinase activity of NEK6 at 10uM relative to control. Control inhibitor: Phosphoric acid* at 0.3uM. Buffer: 8 mM MOPS pH 7.0, 0.2 mM EDTA
Could you please report measured residual activity for the items listed next?
Numbers only, in %.

Record excerpt, results attached:
{"columns": ["molecule-smiles", "readout-units", "residual activity"],
 "data": [
  ["COc1ccc(OC)c2c(=S)c3ccccc3[nH]c12", "%", 91],
  ["COc1cc2ncnc(N3CCN(C(=O)Nc4ccc(Oc5ccccc5)cc4)CC3)c2cc1OC", "%", 126],
  ["O=C1NC(=O)c2cc(Nc3ccc(F)cc3)c(Nc3ccc(F)cc3)cc21", "%", 111],
  ["CNc1cc2c(Nc3cccc(Br)c3)ncnc2cn1", "%", 108],
  ["N#C/C(=C(\\N)Sc1ccc(N)cc1)c1ccccc1C(F)(F)F", "%", 112]
]}

Attention now shifts to the item below.
Data request: I have this compound here, Oc1n[nH]c2nnc(-c3c(-c4ccccc4)nn4ccccc34)cc12 , and I need its recorded residual activity.
Data returned: 110

* * *

# target-entity: Calcium/calmodulin-dependent protein kinase type IV (Homo sapiens) (UniProt Q16566)
# Sequence (Q16566 whole entry): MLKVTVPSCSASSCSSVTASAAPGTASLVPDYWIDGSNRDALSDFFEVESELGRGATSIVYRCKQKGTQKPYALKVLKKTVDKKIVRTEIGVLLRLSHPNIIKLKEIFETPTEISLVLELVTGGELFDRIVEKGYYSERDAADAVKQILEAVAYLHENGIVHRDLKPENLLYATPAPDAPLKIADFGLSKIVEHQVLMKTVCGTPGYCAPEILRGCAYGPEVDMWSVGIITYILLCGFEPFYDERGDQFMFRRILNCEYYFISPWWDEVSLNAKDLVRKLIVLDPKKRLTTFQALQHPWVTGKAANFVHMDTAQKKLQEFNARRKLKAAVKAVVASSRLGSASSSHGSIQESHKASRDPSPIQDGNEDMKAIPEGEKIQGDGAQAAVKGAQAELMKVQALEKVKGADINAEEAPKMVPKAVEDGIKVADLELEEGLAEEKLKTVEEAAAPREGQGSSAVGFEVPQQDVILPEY
# assay-context: at 10 µM
measurement-name: residual activity (%)
Numbers only, in %.

Record excerpt, results attached:
{"columns": ["molecule-smiles", "number"],
 "data": [
  ["NC(=O)c1ccc2[nH]c(-c3ccc(Oc4ccc(Cl)cc4)cc3)nc2c1", 108],
  ["CC(=O)c1ccc(N2CCOCC2)cc1O", 98],
  ["COc1cc2ncnc(Nc3ccc(O)c(Br)c3)c2cc1OC", 67],
  ["Cc1ccc(S(=O)(=O)/C=C/C#N)cc1", 86],
  ["CNc1cc2c(Nc3cccc(Br)c3)ncnc2cn1", 56],
  ["COc1ccc(OC)c2c(=S)c3ccccc3[nH]c12", 84],
  ["O=c1c2ccccc2[nH]c(=S)n1CCN1CCC(=C(c2ccc(F)cc2)c2ccc(F)cc2)CC1", 95],
  ["Nc1n[nH]c2nnc(-c3c(-c4ccccc4)nn4ccccc34)cc12", 64],
  ["O=[N+]([O-])c1ccc(-c2nc(-c3ccc(F)cc3)c(-c3ccncc3)[nH]2)cc1", 92],
  ["CCC(=O)Nc1ccc2ncnc(Nc3cccc(Br)c3)c2c1", 73]
]}

I would be grateful if you could provide residual activity for each of the following entries.
1. c1ccc2c(-c3ccncc3)c[nH]c2c1
2. COc1cc2ncnc(Nc3ccc(NC(=O)c4ccccc4)cc3)c2cc1OC
3. Nc1ccc2ncnc(NCCc3ccc(Oc4ccccc4)cc3)c2c1
4. O=C(Nc1cccc(Nc2nccc(Nc3cccc(C(F)(F)F)c3)n2)c1)C1CC1
5. Oc1n[nH]c2nnc(-c3c(-c4ccccc4)nn4ccccc34)cc12
6. Cc1ccc(NC2=CC(=O)c3sc(C)nc3C2=O)cc1

Data returned:
1. 90
2. 95
3. 106
4. 62
5. 96
6. 96

I would be grateful if you could provide residual activity for each of the following entries.
1. Cn1cc(/C=C2\C(=O)Nc3ccc(S(N)(=O)=O)cc32)c2ccccc21
2. CC#CC(=O)Nc1cc2c(Nc3ccc(F)c(Cl)c3)ncnc2cn1
3. CC(=O)O/N=C1\C(=C2\C(=O)Nc3cc(Br)ccc32)Nc2ccccc21
4. COc1ccc(S(=O)(=O)N(CCO)c2ccccc2CN(C)C/C=C/c2ccc(Cl)cc2)cc1
5. Oc1ccc(-c2nc(-c3ccc(F)cc3)c(-c3ccncc3)[nH]2)cc1

Data returned:
1: 62; 2: 87; 3: 90; 4: 92; 5: 99

I would be grateful if you could provide residual activity for each of the following entries.
1. O=C1c2ccccc2-[n+]2ccc3c([nH]c4ccccc43)c21
2. Cc1cccc(-c2[nH]c(C(C)(C)C)nc2-c2ccc3c(c2)OCO3)n1

Data returned:
93
88

* * *

# target-entity: Serine/threonine-protein kinase TBK1 (Homo sapiens) (UniProt Q9UHD2)
# Sequence (Q9UHD2 whole entry): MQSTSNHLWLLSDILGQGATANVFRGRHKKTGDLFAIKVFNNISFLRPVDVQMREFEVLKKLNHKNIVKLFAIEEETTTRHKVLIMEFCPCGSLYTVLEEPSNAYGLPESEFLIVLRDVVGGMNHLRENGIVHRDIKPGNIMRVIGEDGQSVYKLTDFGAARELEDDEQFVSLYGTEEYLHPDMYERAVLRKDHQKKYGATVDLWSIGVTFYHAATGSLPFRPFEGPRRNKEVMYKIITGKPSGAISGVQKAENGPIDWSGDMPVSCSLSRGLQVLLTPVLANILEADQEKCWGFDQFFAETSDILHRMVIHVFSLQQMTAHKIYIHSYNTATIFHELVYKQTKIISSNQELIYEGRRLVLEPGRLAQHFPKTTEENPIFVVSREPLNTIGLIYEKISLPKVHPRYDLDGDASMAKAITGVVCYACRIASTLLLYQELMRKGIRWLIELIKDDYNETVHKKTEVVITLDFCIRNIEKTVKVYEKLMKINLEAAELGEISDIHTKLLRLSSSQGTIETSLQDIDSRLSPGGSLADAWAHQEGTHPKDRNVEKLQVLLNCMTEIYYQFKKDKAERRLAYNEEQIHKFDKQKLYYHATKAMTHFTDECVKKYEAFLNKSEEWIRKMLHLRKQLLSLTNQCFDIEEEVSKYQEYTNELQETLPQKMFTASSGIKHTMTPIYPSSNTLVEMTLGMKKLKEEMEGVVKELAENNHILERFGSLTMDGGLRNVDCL
# assay-context: at 10 µM
Could you please report measured residual activity for the items listed next?
Give bare numbers, in %.

Record excerpt, results attached:
{"columns": ["molecule-smiles", "readout-units", "residual activity"],
 "data": [
  ["COc1cccc(-c2cc(=O)c3ccccc3o2)c1N", "%", 95],
  ["O=Nc1c(-c2c(O)[nH]c3ccccc23)[nH]c2ccccc12", "%", 1],
  ["O=c1cc(-c2cccc3c2Sc2ccccc2S3)oc(N2CCOCC2)c1", "%", 80],
  ["COc1cc2ncnc(N3CCN(C(=O)Nc4ccc(Oc5ccccc5)cc4)CC3)c2cc1OC", "%", 53],
  ["O=C1c2ccccc2-[n+]2ccc3c([nH]c4ccccc43)c21", "%", 53],
  ["Cc1ccc(NC2=CC(=O)c3sc(C)nc3C2=O)cc1", "%", 74],
  ["COc1ccc(OC)c2c(=S)c3ccccc3[nH]c12", "%", 67],
  ["O=C(Nc1cccc(Nc2cc(Nc3cccc(C(F)(F)F)c3)ncn2)c1)C1CC1", "%", 61],
  ["Cc1ccc(S(=O)(=O)/C=C/C#N)cc1", "%", 81]
]}

Attention now shifts to the item below.
Data request: I have this compound here, CO[C@@H]1[C@H](N(C)C(=O)c2ccccc2)C[C@H]2O[C@]1(C)n1c3ccccc3c3c4c(c5c6ccccc6n2c5c31)C(=O)NC4 , and I need its recorded residual activity.
Data returned: 1

* * *

# target-entity: Discoidin domain-containing receptor 2 (Homo sapiens) (UniProt Q16832)
# Sequence (Q16832 whole entry, the tested form may be a part): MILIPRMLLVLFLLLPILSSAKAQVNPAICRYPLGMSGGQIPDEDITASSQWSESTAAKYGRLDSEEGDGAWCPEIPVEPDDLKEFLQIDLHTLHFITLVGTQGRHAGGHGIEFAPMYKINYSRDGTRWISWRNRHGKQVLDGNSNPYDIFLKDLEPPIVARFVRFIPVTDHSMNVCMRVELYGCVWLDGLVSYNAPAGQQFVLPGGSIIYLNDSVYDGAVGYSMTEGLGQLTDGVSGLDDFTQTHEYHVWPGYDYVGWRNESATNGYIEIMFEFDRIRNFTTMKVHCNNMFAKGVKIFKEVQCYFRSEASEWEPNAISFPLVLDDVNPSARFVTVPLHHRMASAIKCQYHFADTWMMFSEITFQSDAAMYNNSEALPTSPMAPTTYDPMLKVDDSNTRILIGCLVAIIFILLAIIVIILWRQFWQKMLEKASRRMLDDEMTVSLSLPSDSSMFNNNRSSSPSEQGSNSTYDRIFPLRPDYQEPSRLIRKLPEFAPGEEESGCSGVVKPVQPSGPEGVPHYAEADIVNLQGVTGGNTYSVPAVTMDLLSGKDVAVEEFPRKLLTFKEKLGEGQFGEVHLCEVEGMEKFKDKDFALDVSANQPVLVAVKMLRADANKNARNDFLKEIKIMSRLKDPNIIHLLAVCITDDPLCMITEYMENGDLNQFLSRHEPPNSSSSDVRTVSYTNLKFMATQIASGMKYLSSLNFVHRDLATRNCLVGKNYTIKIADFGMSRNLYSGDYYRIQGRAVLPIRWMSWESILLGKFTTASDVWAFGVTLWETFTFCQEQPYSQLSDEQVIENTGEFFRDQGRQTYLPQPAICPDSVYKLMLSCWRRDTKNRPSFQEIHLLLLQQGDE
# assay-context: at 10 µM
Could you please report measured residual activity for the items listed next?
Numbers only, in %.

Record excerpt, results attached:
{"columns": ["molecule-smiles", "readout-units", "residual activity"],
 "data": [
  ["CN(C)CCCn1cc(C2=C(c3c[nH]c4ccccc34)C(=O)NC2=O)c2ccccc21", "%", 82],
  ["CC#CC(=O)Nc1cc2c(Nc3ccc(F)c(Cl)c3)ncnc2cn1", "%", 93],
  ["N#Cc1cnc2cnc(NCc3cccnc3)cc2c1Nc1ccc(F)c(Cl)c1", "%", 53]
]}

I would be grateful if you could provide residual activity for each of the following entries.
1. c1ccc2c(-c3ccncc3)c[nH]c2c1
2. Nc1ccc2ncnc(NCCc3ccc(Oc4ccccc4)cc3)c2c1
3. CO[C@H]1[C@@H](OC)C[C@H](C)[C@@H](OC)C2=CC(=O)C=C(NC(=O)/C(C)=C/C=C/[C@H](OC)[C@@H](OC(N)=O)/C(C)=C/[C@@H]1C)C2=O
4. Cc1cc(Nc2nc(-c3ccccc3)nc3ccccc23)n[nH]1
5. C[C@@H](N)[C@H]1CC[C@H](C(=O)Nc2ccncc2)CC1
6. Cc1nc(-c2ccccc2)c(-c2ccncc2)o1

Data returned:
97
90
99
41
105
36

Data request: I have this compound here, Oc1c2ccccc2c2c3c(cccc13)N=N2 , and I need its recorded residual activity.
Data returned: 92

* * *

Could you please report measured residual activity for the items listed next?
# target-entity: Serine/threonine-protein kinase PAK 4 (Homo sapiens) (UniProt O96013)
# Sequence (O96013 whole entry, looked up): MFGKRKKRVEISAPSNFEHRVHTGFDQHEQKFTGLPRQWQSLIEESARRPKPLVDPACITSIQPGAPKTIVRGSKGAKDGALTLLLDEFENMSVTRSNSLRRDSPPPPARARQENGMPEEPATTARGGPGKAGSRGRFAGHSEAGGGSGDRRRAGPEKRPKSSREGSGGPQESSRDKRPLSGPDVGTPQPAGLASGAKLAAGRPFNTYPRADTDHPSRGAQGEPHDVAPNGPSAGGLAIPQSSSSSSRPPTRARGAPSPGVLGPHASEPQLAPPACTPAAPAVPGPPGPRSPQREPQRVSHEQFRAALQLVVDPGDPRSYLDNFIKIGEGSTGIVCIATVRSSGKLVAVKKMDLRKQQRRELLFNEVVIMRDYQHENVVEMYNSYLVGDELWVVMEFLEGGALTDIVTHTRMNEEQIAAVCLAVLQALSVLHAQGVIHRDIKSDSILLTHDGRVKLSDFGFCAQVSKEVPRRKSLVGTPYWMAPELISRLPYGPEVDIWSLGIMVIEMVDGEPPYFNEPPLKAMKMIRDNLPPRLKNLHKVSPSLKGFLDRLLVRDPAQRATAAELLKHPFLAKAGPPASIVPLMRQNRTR
# assay-context: at 10 µM
Answers are plain numbers, in %.

Record excerpt, results attached:
{"columns": ["molecule-smiles", "residual activity / %"],
 "data": [
  ["Cc1ccc(NC2=CC(=O)c3sc(C)nc3C2=O)cc1", 93],
  ["CC(=O)c1ccc(N2CCOCC2)cc1O", 90],
  ["COc1cc2ncnc(Nc3ccc(O)c(Br)c3)c2cc1OC", 77],
  ["CNc1cc2c(Nc3cccc(Br)c3)ncnc2cn1", 65],
  ["COc1ccc(S(=O)(=O)N(CCO)c2ccccc2CN(C)C/C=C/c2ccc(Cl)cc2)cc1", 93],
  ["COc1cc2ncnc(N3CCN(C(=O)Nc4ccc(Oc5ccccc5)cc4)CC3)c2cc1OC", 84],
  ["CN(C)CCCn1cc(C2=C(c3c[nH]c4ccccc34)C(=O)NC2=O)c2ccccc21", 75],
  ["CO[C@@H]1[C@H](N(C)C(=O)c2ccccc2)C[C@H]2O[C@]1(C)n1c3ccccc3c3c4c(c5c6ccccc6n2c5c31)C(=O)NC4", 43]
]}

I would be grateful if you could provide residual activity for each of the following entries.
1. COc1cccc(-c2cc(=O)c3ccccc3o2)c1N
2. Ic1cccc(CSc2nnc(-c3ccncc3)o2)c1
3. c1ccc2c(-c3ccncc3)c[nH]c2c1
4. CC(C)n1cnc2/c(=N/c3cccc(Cl)c3)nc(NCCO)[nH]c21
5. NC(=O)c1ccc2[nH]c(-c3ccc(Oc4ccc(Cl)cc4)cc3)nc2c1
6. COc1cc2ncc(-c3ccccc3)nc2cc1OC

Data returned:
96
84
80
15
92
93

I would be grateful if you could provide residual activity for each of the following entries.
1. Cc1cncc2cccc(S(=O)(=O)N3CCCN(C(=O)CN)C[C@H]3C)c12
2. CC(=O)O/N=C1\C(=C2\C(=O)Nc3cc(Br)ccc32)Nc2ccccc21
3. c1ccc(-c2n[nH]cc2-c2ccnc3ccccc23)nc1
4. N#Cc1cnc2cnc(NCc3cccnc3)cc2c1Nc1ccc(F)c(Cl)c1

Data returned:
1. 85
2. 67
3. 90
4. 18
